Species on record: Homo sapiens
procedure_summary: Selectivity index, ratio of Ki for human recombinant KOR expressed in CHO cell membranes to Ki for human recombinant DOR expressed in CHO cell membranes
Format: cell-based

- compound: "O=C(Oc1ccccc1)N1C[C@H]2CC34CCC1C2C31CCN(CC2CC2)C4Cc2ccc(O)cc21 (some centres undefined)"
  Ratio Ki: 0.6
- compound: "Oc1ccc2c(c1)C13CCN(CC4CC4)C(C2)C12CCC1C3[C@@H](CN1Cc1ccccc1)C2 (some centres undefined)"
  Ratio Ki: 7.3
- compound: "Oc1ccc2c(c1)C13CCN(CC4CC4)C(C2)C12CCC1C3[C@@H](CN1c1cnccn1)C2 (some centres undefined)"
  Ratio Ki: 1.3
- compound: "Oc1ccc2c(c1)C13CCN(CC4CC4)C(C2)C12CCC1C3[C@@H](CN1CC1CCCCC1)C2 (some centres undefined)"
  Ratio Ki: 0.5
- compound: "O=C(c1ccoc1)N1C[C@H]2CC34CCC1C2C31CCN(CC2CC2)C4Cc2ccc(O)cc21 (some centres undefined)"
  Ratio Ki: 0.7
- compound: "O=C(c1ccccc1)N1C[C@H]2CC34CCC1C2C31CCN(CC2CC2)C4Cc2ccc(O)cc21 (some centres undefined)"
  Ratio Ki: 1.7
- compound: "O=C(Nc1ccccc1)N1C[C@H]2CC34CCC1C2C31CCN(CC2CC2)C4Cc2ccc(O)cc21 (some centres undefined)"
  Ratio Ki: 1.3
- compound: "O=C(c1ccccn1)N1C[C@H]2CC34CCC1C2C31CCN(CC2CC2)C4Cc2ccc(O)cc21 (some centres undefined)"
  Ratio Ki: 1.2
- compound: "Oc1ccc2c(c1)C13CCN(CC4CC4)C(C2)C12CCC1C3[C@@H](CN1c1ccccc1)C2 (some centres undefined)"
  Ratio Ki: 1.9

----------
measurement_target: Mu-type opioid receptor (Homo sapiens)
Sequence (P35372 whole entry): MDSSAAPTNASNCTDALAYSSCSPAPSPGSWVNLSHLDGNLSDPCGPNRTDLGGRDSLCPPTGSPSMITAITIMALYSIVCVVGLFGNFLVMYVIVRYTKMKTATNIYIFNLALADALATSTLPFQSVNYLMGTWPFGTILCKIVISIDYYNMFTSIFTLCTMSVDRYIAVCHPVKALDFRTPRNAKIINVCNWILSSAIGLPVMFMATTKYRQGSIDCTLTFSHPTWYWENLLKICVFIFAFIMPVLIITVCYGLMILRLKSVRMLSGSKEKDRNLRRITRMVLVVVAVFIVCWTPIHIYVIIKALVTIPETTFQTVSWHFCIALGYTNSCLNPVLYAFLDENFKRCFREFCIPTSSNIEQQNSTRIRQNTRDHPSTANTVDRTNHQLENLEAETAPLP
procedure_summary: Agonist activity at human recombinant MOR expressed in CHO cells assessed as cAMP accumulation at 10 uM relative to DAMGO
Type: functional, cell-based
Kindly apply the following: label 1 if Emax is less than 6%, label 0 in every other case.

- molecule: "Oc1ccc2c(c1)C13CCN(CC4CC4)C(C2)C12CCC1C3[C@@H](CN1Cc1ccccc1)C2 (stereo partly specified)"
  measurement_target: "Mu-type opioid receptor (Homo sapiens)"
  group: "label 0"
- molecule: "O=C(c1ccccn1)N1C[C@H]2CC34CCC1C2C31CCN(CC2CC2)C4Cc2ccc(O)cc21 (stereo partly specified)"
  measurement_target: "Mu-type opioid receptor (Homo sapiens)"
  group: "label 0"
- molecule: "O=C(c1ccccc1)N1C[C@H]2CC34CCC1C2C31CCN(CC2CC2)C4Cc2ccc(O)cc21 (stereo partly specified)"
  measurement_target: "Mu-type opioid receptor (Homo sapiens)"
  group: "label 1"
- molecule: "O=C(Oc1ccccc1)N1C[C@H]2CC34CCC1C2C31CCN(CC2CC2)C4Cc2ccc(O)cc21 (stereo partly specified)"
  measurement_target: "Mu-type opioid receptor (Homo sapiens)"
  group: "label 1"
- molecule: "O=C(Nc1ccccc1)N1C[C@H]2CC34CCC1C2C31CCN(CC2CC2)C4Cc2ccc(O)cc21 (stereo partly specified)"
  measurement_target: "Mu-type opioid receptor (Homo sapiens)"
  group: "label 0"
- molecule: "Oc1ccc2c(c1)C13CCN(CC4CC4)C(C2)C12CCC1C3[C@@H](CN1c1cnccn1)C2 (stereo partly specified)"
  measurement_target: "Mu-type opioid receptor (Homo sapiens)"
  group: "label 1"

----------
Catalogue of pKi readings, one per entry.
measurement_target: Delta-type opioid receptor (Homo sapiens)
procedure_summary: Displacement of [3H]DPDPE from human recombinant DOR expressed in CHO cell membranes
pKi: −log10 of the molar value.
readout_kind: pKi

- compound: "Oc1ccc2c(c1)C13CCN(CC4CC4)C(C2)C12CCC1C3[C@@H](CN1Cc1ccccc1)C2 (some centres undefined)"
  readout_kind: "pKi"
  numeric_readout: 9.23
- compound: "O=C(Oc1ccccc1)N1C[C@H]2CC34CCC1C2C31CCN(CC2CC2)C4Cc2ccc(O)cc21 (some centres undefined)"
  readout_kind: "pKi"
  numeric_readout: 9.08
- compound: "O=C(c1ccoc1)N1C[C@H]2CC34CCC1C2C31CCN(CC2CC2)C4Cc2ccc(O)cc21 (some centres undefined)"
  readout_kind: "pKi"
  numeric_readout: 9.50
- compound: "Oc1ccc2c(c1)C13CCN(CC4CC4)C(C2)C12CCC1C3[C@@H](CN1c1cnccn1)C2 (some centres undefined)"
  readout_kind: "pKi"
  numeric_readout: 9.45
- compound: "O=C(Nc1ccccc1)N1C[C@H]2CC34CCC1C2C31CCN(CC2CC2)C4Cc2ccc(O)cc21 (some centres undefined)"
  readout_kind: "pKi"
  numeric_readout: 9.58
- compound: "Oc1ccc2c(c1)C13CCN(CC4CC4)C(C2)C12CCC1C3[C@@H](CN1c1ccccc1)C2 (some centres undefined)"
  readout_kind: "pKi"
  numeric_readout: 8.90
- compound: "O=C(c1ccccc1)N1C[C@H]2CC34CCC1C2C31CCN(CC2CC2)C4Cc2ccc(O)cc21 (some centres undefined)"
  readout_kind: "pKi"
  numeric_readout: 9.68
- compound: "O=C(c1ccccn1)N1C[C@H]2CC34CCC1C2C31CCN(CC2CC2)C4Cc2ccc(O)cc21 (some centres undefined)"
  readout_kind: "pKi"
  numeric_readout: 9.34
- compound: "Oc1ccc2c(c1)C13CCN(CC4CC4)C(C2)C12CCC1C3[C@@H](CN1CC1CCCCC1)C2 (some centres undefined)"
  readout_kind: "pKi"
  numeric_readout: 8.84

----------
measurement_target: Kappa-type opioid receptor (Homo sapiens, UniProt P41145)
Sequence (P41145 whole entry): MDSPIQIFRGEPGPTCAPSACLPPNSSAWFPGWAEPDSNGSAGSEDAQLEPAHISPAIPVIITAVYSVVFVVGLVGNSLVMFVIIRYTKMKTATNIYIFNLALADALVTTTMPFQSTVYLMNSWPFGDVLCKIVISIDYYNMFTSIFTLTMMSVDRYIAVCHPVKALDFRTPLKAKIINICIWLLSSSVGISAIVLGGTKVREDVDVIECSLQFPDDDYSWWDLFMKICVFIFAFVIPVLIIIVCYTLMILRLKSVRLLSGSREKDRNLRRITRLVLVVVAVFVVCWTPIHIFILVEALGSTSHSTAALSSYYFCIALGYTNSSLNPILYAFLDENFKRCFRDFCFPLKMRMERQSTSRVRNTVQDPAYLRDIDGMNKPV
procedure_summary: Displacement of [3H]U-69,593 from human recombinant KOR expressed in CHO cell membranes
readout_kind: Ki (pM)

- compound: "Oc1ccc2c(c1)C13CCN(CC4CC4)C(C2)C12CCC1C3[C@@H](CN1c1ccccc1)C2 (some centres undefined)"
  numeric_readout: 2430
- compound: "O=C(c1ccoc1)N1C[C@H]2CC34CCC1C2C31CCN(CC2CC2)C4Cc2ccc(O)cc21 (some centres undefined)"
  numeric_readout: 221
- compound: "O=C(Oc1ccccc1)N1C[C@H]2CC34CCC1C2C31CCN(CC2CC2)C4Cc2ccc(O)cc21 (some centres undefined)"
  numeric_readout: 522
- compound: "Oc1ccc2c(c1)C13CCN(CC4CC4)C(C2)C12CCC1C3[C@@H](CN1Cc1ccccc1)C2 (some centres undefined)"
  numeric_readout: 4260
- compound: "Oc1ccc2c(c1)C13CCN(CC4CC4)C(C2)C12CCC1C3[C@@H](CN1c1cnccn1)C2 (some centres undefined)"
  numeric_readout: 479
- compound: "O=C(c1ccccc1)N1C[C@H]2CC34CCC1C2C31CCN(CC2CC2)C4Cc2ccc(O)cc21 (some centres undefined)"
  numeric_readout: 362
- compound: "O=C(c1ccccn1)N1C[C@H]2CC34CCC1C2C31CCN(CC2CC2)C4Cc2ccc(O)cc21 (some centres undefined)"
  numeric_readout: 564
- compound: "O=C(Nc1ccccc1)N1C[C@H]2CC34CCC1C2C31CCN(CC2CC2)C4Cc2ccc(O)cc21 (some centres undefined)"
  numeric_readout: 336
- compound: "Oc1ccc2c(c1)C13CCN(CC4CC4)C(C2)C12CCC1C3[C@@H](CN1CC1CCCCC1)C2 (some centres undefined)"
  numeric_readout: 781

----------
measurement_target: Delta-type opioid receptor (Homo sapiens, UniProt P41143)
Sequence (P41143 whole entry): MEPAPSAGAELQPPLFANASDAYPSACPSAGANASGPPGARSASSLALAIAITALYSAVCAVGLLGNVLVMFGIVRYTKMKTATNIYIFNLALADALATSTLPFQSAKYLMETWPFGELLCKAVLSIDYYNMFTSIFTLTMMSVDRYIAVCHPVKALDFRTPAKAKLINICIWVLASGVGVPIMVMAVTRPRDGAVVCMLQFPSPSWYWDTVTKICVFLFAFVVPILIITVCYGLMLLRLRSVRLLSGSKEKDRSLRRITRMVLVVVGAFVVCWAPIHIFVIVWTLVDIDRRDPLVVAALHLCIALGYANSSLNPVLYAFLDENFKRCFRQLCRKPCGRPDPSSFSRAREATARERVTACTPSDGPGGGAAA
procedure_summary: Agonist activity at human recombinant DOR expressed in CHO cells assessed as cAMP accumulation
pEC50: −log10 of the molar value.
If the reported pEC50 equals or exceeds 9, assign class 1. If not, assign class 0.

- compound: "O=C(c1ccccn1)N1C[C@H]2CC34CCC1C2C31CCN(CC2CC2)C4Cc2ccc(O)cc21 (some centres undefined)"
  group: "class 1"
- compound: "Oc1ccc2c(c1)C13CCN(CC4CC4)C(C2)C12CCC1C3[C@@H](CN1c1ccccc1)C2 (some centres undefined)"
  group: "class 0"
- compound: "Oc1ccc2c(c1)C13CCN(CC4CC4)C(C2)C12CCC1C3[C@@H](CN1Cc1ccccc1)C2 (some centres undefined)"
  group: "class 1"
- compound: "Oc1ccc2c(c1)C13CCN(CC4CC4)C(C2)C12CCC1C3[C@@H](CN1c1cnccn1)C2 (some centres undefined)"
  group: "class 1"
- compound: "O=C(c1ccccc1)N1C[C@H]2CC34CCC1C2C31CCN(CC2CC2)C4Cc2ccc(O)cc21 (some centres undefined)"
  group: "class 1"
- compound: "O=C(c1ccoc1)N1C[C@H]2CC34CCC1C2C31CCN(CC2CC2)C4Cc2ccc(O)cc21 (some centres undefined)"
  group: "class 1"

----------
measurement_target: Kappa-type opioid receptor (Homo sapiens)
procedure_summary: Agonist activity at human recombinant KOR expressed in CHO cells assessed as cAMP accumulation

- compound: "O=C(Oc1ccccc1)N1C[C@H]2CC34CCC1C2C31CCN(CC2CC2)C4Cc2ccc(O)cc21 (some centres not stated)"
  EC50 (nM): 2.5
- compound: "Oc1ccc2c(c1)C13CCN(CC4CC4)C(C2)C12CCC1C3[C@@H](CN1CC1CCCCC1)C2 (some centres not stated)"
  EC50 (nM): 5.7
- compound: "O=C(Nc1ccccc1)N1C[C@H]2CC34CCC1C2C31CCN(CC2CC2)C4Cc2ccc(O)cc21 (some centres not stated)"
  EC50 (nM): 0.3
- compound: "Oc1ccc2c(c1)C13CCN(CC4CC4)C(C2)C12CCC1C3[C@@H](CN1Cc1ccccc1)C2 (some centres not stated)"
  EC50 (nM): 4.5
- compound: "Oc1ccc2c(c1)C13CCN(CC4CC4)C(C2)C12CCC1C3[C@@H](CN1c1ccccc1)C2 (some centres not stated)"
  EC50 (nM): 8.1
- compound: "O=C(c1ccoc1)N1C[C@H]2CC34CCC1C2C31CCN(CC2CC2)C4Cc2ccc(O)cc21 (some centres not stated)"
  EC50 (nM): 1.4
- compound: "Oc1ccc2c(c1)C13CCN(CC4CC4)C(C2)C12CCC1C3[C@@H](CN1c1cnccn1)C2 (some centres not stated)"
  EC50 (nM): 0.2
